Attribute: unfolding enthalpy (van 't Hoff)
B1: Lysozyme C, P61626 (parent)
chain: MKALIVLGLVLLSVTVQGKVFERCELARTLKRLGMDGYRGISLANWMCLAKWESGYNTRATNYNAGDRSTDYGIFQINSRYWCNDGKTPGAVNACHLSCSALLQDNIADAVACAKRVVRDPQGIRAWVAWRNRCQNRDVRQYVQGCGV

- Variants of: B1
- experimental setup: Homo sapiens; pH 2.85; Thermal; DSC; glycine-HCl 0.05 M; reversible: yes; structure 1LZ1; whole UniProt chain shown
# number only, unit kcal/mol dropped from output

sequence	observed result
MKALIVLGLVLLSVTVQGKVFERCELARTLKRLGMDGYRGISLANWMCLAKWESGYNTRATNYNAGDRSVDYGIFQINSRYWCNDGKTPGAVNACHLSCSALLQDNIADAVACAKRVVRDPQGIRAWVAWRNRCQNRDVRQYVQGCGV [T70V]	110

Q) Please give the measured unfolding enthalpy (van 't Hoff) for this variant: MKALIVLGLVLLSVTVQGKVFERCELARTLKRLGMDGYRGISLANWMCLAKWESGYNARATNYNAGDRSTDYGIFQINSRYWCNDGKTPGAVNACHLSCSALLQDNIADAVACAKRVVRDPQGIRAWVAWRNRCQNRDVRQYVQGCGV [T58A]
A) 114

Q) Please give the measured unfolding enthalpy (van 't Hoff) for this variant: MKALIVLGLVLLSVTVQGKVFERCELARTLKRLGMDGYRGISLANWMCLAKWESGYNVRATNYNAGDRSTDYGIFQINSRYWCNDGKTPGAVNACHLSCSALLQDNIADAVACAKRVVRDPQGIRAWVAWRNRCQNRDVRQYVQGCGV [T58V]
A) 113

Q) Please give the measured unfolding enthalpy (van 't Hoff) for this variant: MKALIVLGLVLLSVTVQGKVFERCELARTLKRLGMDGYRGISLANWMCLAKWESGYNTRATNYNAGDRSTDYGIFQINSRYWCNDGKVPGAVNACHLSCSALLQDNIADAVACAKRVVRDPQGIRAWVAWRNRCQNRDVRQYVQGCGV [T88V]
A) 117

Q) Please give the measured unfolding enthalpy (van 't Hoff) for this variant: MKALIVLGLVLLSVTVQGKVFERCELARTLKRLGMDGYRGISLANWMCLAKWESGYNTRATNYNAGDRSTDYGIFQINSRYWCNDGKAPGAVNACHLSCSALLQDNIADAVACAKRVVRDPQGIRAWVAWRNRCQNRDVRQYVQGCGV [T88A]
A) 106

Q) Please give the measured unfolding enthalpy (van 't Hoff) for this variant: MKALIVLGLVLLSVTVQGKVFERCELARTLKRLGMDGYRGISLANWMCLAKWESGYNTRATNYNAGDRSADYGIFQINSRYWCNDGKTPGAVNACHLSCSALLQDNIADAVACAKRVVRDPQGIRAWVAWRNRCQNRDVRQYVQGCGV [T70A]
A) 112

These data points were gathered from FireProtDB (doi:10.1021/bi9910169).
